This collection of values is drawn from patent US8628771B2.

Target: bCA IV (Bos taurus)
Construct: CA IV was isolated from bovine lung microsomes as described by Maren et al; from tissue; host or cells: bovine lung microsomes
Sequence (Q95323 19-284): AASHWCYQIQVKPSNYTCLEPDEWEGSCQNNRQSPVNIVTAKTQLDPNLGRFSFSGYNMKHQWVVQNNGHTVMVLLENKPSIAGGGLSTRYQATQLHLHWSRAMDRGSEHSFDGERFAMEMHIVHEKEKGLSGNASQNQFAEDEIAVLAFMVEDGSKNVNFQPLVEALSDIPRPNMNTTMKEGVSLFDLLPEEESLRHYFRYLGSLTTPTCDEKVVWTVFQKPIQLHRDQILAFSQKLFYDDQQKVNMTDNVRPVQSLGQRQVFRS
Assay: CA esterase activity assay, isozyme bCA IV
Type: biochemical, bovine
Conditions: Table 3; from bovine lung microsomes, esterase assay method; read-out: KI bCA IV
pKi: −log10 of the molar value.
measured.attribute: pKi

P = Cc1cc(C(C)(C)C)[n+](-c2ccc(S(=O)(=O)Nc3nnc(S(N)(=O)=O)s3)cc2)c(C(C)(C)C)c1 [Compound 74]
Q = Cc1cc(-c2ccccc2)cc(C)[n+]1-c1ccc(S(=O)(=O)Nc2nnc(S(N)(=O)=O)s2)cc1 [Compound 75]
R = NS(=O)(=O)c1ccc(S(=O)(=O)Nc2cccc3c(Cl)c[nH]c23)cc1 [indisulam, reference compound]
Rank by decreasing pKi the items listed here. Could you list the labels in the order requested? Q, P, R
